Numbers sourced from ChEMBL document CHEMBL4834464.

assay: Solubility of the compound in FaSSIF at pH 6.5 incubated for 16 hrs by HPLC gradient analysis; type: physicochemical; settings: simulated gi fluid, pH 6.5, 16 h
READOUT LABEL: solubility (µg/mL)

The examples below pair each entry with its known result.
[
  {
    "CHEM SMILES": "CNC(=O)c1cc(C(=O)NC2CC2)n([C@@H](C)c2ccccc2)n1",
    "UNITS SYMBOL": "µg/mL",
    "solubility": 939
  },
  {
    "CHEM SMILES": "CNC(=O)c1cc(C(=O)N[C@H]2CC[C@H](O)CC2)n([C@@H](C)c2ccccc2)n1",
    "UNITS SYMBOL": "µg/mL",
    "solubility": 366
  }
]

A = CNC(=O)c1cc(C(=O)NC2CC2)c([C@@H](C)c2ccccc2)o1
B = CNC(=O)c1cc(C(=O)N[C@H]2CC[C@H](O)CC2)c([C@@H](C)c2ccccc2)o1
Inquiry: I'm curious, which of these has a smaller solubility number: A or B ? // output: label of the selected item
Reply text: A
(A: 423 µg/mL, B: 827 µg/mL)
